Each record here notes measured Caspase-3 induction, Normalized to Formula (III) (%).
System: B16 melanoma cells
method-summary: Caspase-3 activity assay (EnzChek Caspase-3 Assay Kit), caspase-3 induction in tumor cells
Assay type: cell-based, mouse
experimental-setup: relative to compound of Formula (III)
Give the number; % is assumed, so skip it.

Answered cases to consult:
{"structure-notation": "Cc1cc(O)c(O)cc1C(=O)NCC(C)C", "unit": "%", "observed-result": "−27.9096"}
{"structure-notation": "O=C(c1ccc2nc(-c3cc(Cl)cc(Cl)c3)oc2c1)N1CCCC1", "unit": "%", "observed-result": "−6.23"}
{"structure-notation": "CCN(C)C(=O)c1ccc2nc(-c3ccccc3)oc2c1", "unit": "%", "observed-result": "−76.883"}
{"structure-notation": "CCN(C)C(=O)c1cc2c(cc1O)OCO2", "unit": "%", "observed-result": "−3.424"}
{"structure-notation": "COc1cc(C(=O)NCCN(C)C)cc(OC)c1O", "unit": "%", "observed-result": "−5.767"}

The molecule COc1cc(C(=O)NC2CCCC2)cc(OC)c1O , tested on B16 melanoma cells, showed Caspase-3 induction, Normalized to Formula (III) (%) of −24.5783

The molecule CCN(C)C(=O)c1ccc(O)c(OC)c1 , tested on B16 melanoma cells, showed Caspase-3 induction, Normalized to Formula (III) (%) of −33.3917

====

Each record here notes measured Caspase-3 induction, Normalized to Formula (III) (%).
System: B16 melanoma cells
method-summary: Caspase-3 activity assay (EnzChek Caspase-3 Assay Kit), caspase-3 induction in tumor cells
Format: cell-based, mouse
experimental-setup: relative to compound of Formula (III)

Answered cases to consult:
{"compound": "CCOc1ccc(C(=O)NCc2ccccc2)cc1O [N-benzyl-4-ethoxy-3-hydroxybenzamide]", "observed-result": "19.0685%"}
{"compound": "CCN(C)C(=O)c1cc(OC)c(OC)cc1Br", "observed-result": "−74.0106%"}
{"compound": "CN(C)c1nc2c(C(=O)NC3CCCC3)cccc2o1", "observed-result": "−20.9929%"}

Attention now shifts to the item below.
The compound CCN(C)C(=O)c1cccc2nc(N(C)C)oc12 , tested on B16 melanoma cells, showed Caspase-3 induction, Normalized to Formula (III) (%) of −30.9946%

====

System: B16 melanoma cells
method-summary: Caspase-3 activity assay (EnzChek Caspase-3 Assay Kit), caspase-3 induction in tumor cells
Assay type: cell-based, mouse
experimental-setup: relative to compound of Formula (III)
readout-type: Caspase-3 induction, Normalized to Formula (III) (%)
Give the number; % is assumed, so skip it.

{"structure-notation": "CCN(C)C(=O)c1ccc2nc(C(F)(F)C(F)(F)F)oc2c1", "observed-result": "−28.449"}
{"structure-notation": "CN(C)c1nc2c(C(=O)NCc3ccccc3)cccc2o1", "observed-result": 61.2163}

Short answer for O=C(c1ccc2nc(C(F)(F)F)oc2c1)N1CCCC1 : Caspase-3 induction, Normalized to Formula (III) (%) was −71.4007

Short answer for CN(C)c1nc2c(C(=O)N3CCCC3)cccc2o1 : Caspase-3 induction, Normalized to Formula (III) (%) was −22.9856

Short answer for COCCCNC(=O)Cc1ccc2ocnc2c1 : Caspase-3 induction, Normalized to Formula (III) (%) was −31.2011

Short answer for CCN(C)C(=O)c1cccc2oc(N(C)C)nc12 : Caspase-3 induction, Normalized to Formula (III) (%) was −25.6782

Short answer for COc1cc(Br)c(C(=O)NC2CCCC2)cc1OC : Caspase-3 induction, Normalized to Formula (III) (%) was −49.8913

====

Tested on: B16 melanoma cells
method-summary: Caspase-3 activity assay (EnzChek Caspase-3 Assay Kit), caspase-3 induction in tumor cells
Format: cell-based, mouse
experimental-setup: relative to compound of Formula (III)
Excerpt: The EnzChek® Caspase-3 Assay Kit was used to detect apoptosis by assaying for increases in caspase-3 activities. The basis for the assay was rhodamine 110 bis-(N-CBZ-L-aspartyl-L-glutamyl-L-valyl-L-aspartic acid amide) (Z-DEVD-R110). This substrate is a bisamide derivative of rhodamine 110 (R110) containing DEVD peptides covalently linked to each of R110's amino groups, thereby suppressing the dye's visible absorption and its fluorescence. […]
Please use satisfied for Caspase-3 induction, Normalized to Formula (III) (%) under -30% and not satisfied for everything else, ties included.

Field: example entries. Status: answers known.
{"structure-notation": "O=C(NC1CCCC1)c1ccc2nc(C3CCCCC3)oc2c1", "category": "not satisfied"}
{"structure-notation": "CCN(C)C(=O)c1cc(O)c(O)cc1C", "category": "satisfied"}
{"structure-notation": "CN(C)CCNC(=O)c1cc2c(cc1O)OCO2", "category": "not satisfied"}

Problem: For the molecule COc1cc(C(=O)NCC2CCOCC2)ccc1OCCC(C)C , is Caspase-3 induction, Normalized to Formula (III) (%) under -30%?
satisfied

Problem: For the molecule O=C(Cc1ccc2ocnc2c1)N1CCCC1 , is Caspase-3 induction, Normalized to Formula (III) (%) under -30%?
not satisfied

Problem: For the molecule COCCCNC(=O)c1ccc2nc(-c3cc(Cl)cc(Cl)c3)oc2c1 , is Caspase-3 induction, Normalized to Formula (III) (%) under -30%?
satisfied

Problem: For the molecule CN(C)c1nc2cccc(C(=O)NCc3ccccc3)c2o1 , is Caspase-3 induction, Normalized to Formula (III) (%) under -30%?
not satisfied

====

Each record here notes measured Caspase-3 induction, Normalized to Formula (III) (%).
System: B16 melanoma cells
method-summary: Caspase-3 activity assay (EnzChek Caspase-3 Assay Kit), caspase-3 induction in tumor cells
Type: cell-based, mouse
experimental-setup: relative to compound of Formula (III)
Respond with the figure and its unit, in that order.

Answered cases to consult:
{"structure-notation": "O=C(c1ccc2nc(C3CCCCC3)oc2c1)N1CCCC1", "observed-result": "−29.7019%"}
{"structure-notation": "O=C(c1ccc2nc(C(F)(F)C(F)(F)F)oc2c1)N1CCCC1", "observed-result": "−38.2832%"}
{"structure-notation": "O=C(NCc1ccccc1)c1ccc2nc(C(F)(F)C(F)(F)F)oc2c1", "observed-result": "−48.3904%"}
{"structure-notation": "CC(C)CNC(=O)c1cc2c(cc1O)OCO2", "observed-result": "−31.2294%"}
{"structure-notation": "COc1cc(C(=O)NCC2CCOCC2)cc(OC)c1O", "observed-result": "−78.7609%"}
{"structure-notation": "COCCCNC(=O)c1ccc2nc(C3CCCCC3)oc2c1", "observed-result": "−42.1813%"}

The compound O=C(NC1CCCC1)c1ccc2nc(C3CC3)oc2c1 , tested on B16 melanoma cells, showed Caspase-3 induction, Normalized to Formula (III) (%) of −21.5068%

The compound CCOc1ccc(C(=O)NC2CCCC2)cc1O , tested on B16 melanoma cells, showed Caspase-3 induction, Normalized to Formula (III) (%) of 4.1370%

The compound O=C(Cc1ccc2ocnc2c1)NCc1ccccc1 , tested on B16 melanoma cells, showed Caspase-3 induction, Normalized to Formula (III) (%) of −34.4942%

The compound COc1cc(C(=O)NCC(C)C)cc(OC)c1O , tested on B16 melanoma cells, showed Caspase-3 induction, Normalized to Formula (III) (%) of −25.2896%

The compound COc1cc(C(=O)NCC2(C)CC2)cc(OC)c1O , tested on B16 melanoma cells, showed Caspase-3 induction, Normalized to Formula (III) (%) of −0.598%

The compound CCN(C)C(=O)c1cc(OC)c(O)c(OC)c1 , tested on B16 melanoma cells, showed Caspase-3 induction, Normalized to Formula (III) (%) of −34.6356%

The compound O=C(c1ccc2nc(C3CC3)oc2c1)N1CCCC1 , tested on B16 melanoma cells, showed Caspase-3 induction, Normalized to Formula (III) (%) of −27.4144%

The compound CN(C)c1nc2cccc(C(=O)N3CCCC3)c2o1 , tested on B16 melanoma cells, showed Caspase-3 induction, Normalized to Formula (III) (%) of −21.0312%

The compound Cc1nc2c(C(=O)NCc3ccccc3)cccc2o1 , tested on B16 melanoma cells, showed Caspase-3 induction, Normalized to Formula (III) (%) of −46.2057%

The compound COc1cc(Br)c(C(=O)NCC2CCOCC2)cc1OC , tested on B16 melanoma cells, showed Caspase-3 induction, Normalized to Formula (III) (%) of −43.6422%

The compound COCCCNC(=O)c1cc(O)c(O)cc1C , tested on B16 melanoma cells, showed Caspase-3 induction, Normalized to Formula (III) (%) of −55.7377%

The compound O=C(NCc1ccccc1)c1cc2c(cc1O)OCO2 , tested on B16 melanoma cells, showed Caspase-3 induction, Normalized to Formula (III) (%) of −9.366%

The compound CCOc1ccc(C(=O)NCCN(C)C)cc1O , tested on B16 melanoma cells, showed Caspase-3 induction, Normalized to Formula (III) (%) of −38.5237%

The compound CCN(C)C(=O)c1ccc2nc(S)oc2c1 , tested on B16 melanoma cells, showed Caspase-3 induction, Normalized to Formula (III) (%) of −6.201%

The compound CCN(C)C(=O)c1ccc2nc(-c3cc(Cl)cc(Cl)c3)oc2c1 , tested on B16 melanoma cells, showed Caspase-3 induction, Normalized to Formula (III) (%) of −85.6535%

The compound Cc1cc(O)c(O)cc1C(=O)N1CCCC1 , tested on B16 melanoma cells, showed Caspase-3 induction, Normalized to Formula (III) (%) of −40.485%

The compound O=C(Cc1ccc2ocnc2c1)NC1CCCC1 , tested on B16 melanoma cells, showed Caspase-3 induction, Normalized to Formula (III) (%) of −4.02%

The compound CCOc1ccc(C(=O)NCC(C)C)cc1O , tested on B16 melanoma cells, showed Caspase-3 induction, Normalized to Formula (III) (%) of −3.559%

The compound CCOc1ccc(C(=O)N2CCCC2)cc1O , tested on B16 melanoma cells, showed Caspase-3 induction, Normalized to Formula (III) (%) of −21.427%
